- Tested on: MS2 coat protein
- assay.details: apparent KD of MS2 coat protein, switch ON state; designed switch direction (-1 OFF switch, 1 ON switch): -1; higher = weaker reporter binding
- condition.parameters: FMN input: 0 or 200 uM; Eterna round: R93 (includes R88 designs)
Rule: met for apparent KD of MS2 coat protein not less than 40 nM, not met for anything less.

| biosequence | cat |
| --- | --- |
| AACUGACAUGAGGAUCACCCAUGUCAGGAUAUGCAUCUUAGGAAAAAAAAACUAAGAUGCAGAAGGGACAAGGG [Amethyst 48] | not met |
| GGAUGGGAAGGAUAUACAUGAGGAUCACCCAUGUGAGAGAAAAAAGUGAGAAAGAAAAGUAGAAGGUCUUGUCG [salish99-ex3-85] | met |
| AAGAGGCUAGGAUAUACACAUCUGAUGACUCAACCUAAAACACAUGAGGAUCACCCAUGUAGAAGGAGCGAAAG [Qucequor] | not met |
| AAGGGACAUGAGGAUCACCCAUGUAAGGAUAUGCUAUGGAAAAUAAAAAUAAAACAUAGCAGAAGGUACAAAAA [Denovo 15] | met |
| AGCUAGUCAGGAUAUACGAACAGGUGAAAAGACGUAAGGGAACAUGAGGAUCACCCAUGUAGAAGGGACUAGCA [Diamond 53] | met |
| AAGAAACAUGAGGAUCACCCAUGUCAGGAUAUCCAAAAGAAAAGAAAAGAAAGAAGAAGGAGAAGGGACAAAGG [Neferkamin Anu] | not met |
| AAAAAACAUGAGGAUCACCCAUGUGAGGAUAUGCAAUAAAAAAUAAAAAUAAAACAUAGCAGAAGGCACACCAA [Amethyst 58] | not met |
| GAAAACUGAGGAUAUACUUUGGGAAAAGAAAAGAUGAUGUUACAUGAGGAUCACCCAUGUAGAAGGCAGAAAAA [Default title] | not met |
| AAAACACAUGAGGAUCACCCAUGUGAGGAUAUGCUAUGGAAAAUAAAAAUAAAACAUAGCAGAAGGCACAAGGA [Denovo 17] | not met |
| CAAAACAGAGGAUAUACAUGAGGAUCACCCAUGUAAAAAUGUAGAAGGCUGAAACAAACAAGAAGGAAACAAAA [Meechl Ex3 R2 m3] | not met |
| UGCUAGUCAGGAUAUACGAACAUGUCAAAAGACGUGAAGGGACAUGAGGAUCACCCAUGUAGAAGGGACUAGCA [salish99-Ex2-18] | not met |
| AGGAAACAUGAGGAUCACCCAUGUGAGGAUAUACAAAAGAAAAGAAAAGAAAGAAGAAGUAGAAGGCACAAGAA [Thesh] | not met |
| AUACGCUGAGGAUAUACCGAAACAACAUCCUCGUGUAUAAUACAUGAGGAUCACCCAUGUAGAAGGCAGUAAAA [Usmaan] | met |

====

- Tested on: MS2 coat protein
- assay.details: apparent KD of MS2 coat protein, switch ON state; designed switch direction (-1 OFF switch, 1 ON switch): -1; higher = weaker reporter binding
- condition.parameters: FMN input: 0 or 200 uM; Eterna round: R93 (includes R88 designs)

| biosequence | measurement.target | apparent KD of MS2 coat protein, nM |
| --- | --- | --- |
| AAAUGACUAGGAUAUACAUGAGGAUCACCCAUGUGUAUAAAUAAAUACACAAAAGAAAGUAGAAGGAGUCAAAG [Mat - Exclusion 3 - Mayanna mod - D123] | MS2 coat protein | 20.6 |
| AUCAUGUAAGGAUAUUAAAGAAAAGAAAAGAAAGAAAAGAAUAAGAAGGUACAUGAGGAUCACCCAUGUAAGAA [EteRNA is fun!] | MS2 coat protein | 27 |
| AAAGAUGGAGGAUAUACAUGAGGAUCACCCAUGUGGAAAAUAAAUUGGGAAAAAGAAAGUAGAAGGCCAAAAAA [Ex 3 May 41] | MS2 coat protein | 45.5 |

====

- System: K4 kissing-loop RNA reporter;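 further: bound reporter read as fluorescence of individual clusters on recovered sequencing chips by microscopy, with normalized cluster intensities fitted with a binding model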
- assay.details: apparent KD of K4 kissing-loop reporter; higher = weaker reporter binding
- condition.parameters: Eterna round: R107; input ligand: FMN 200 uM
reported.endpoint: apparent KD of K4 kissing-loop reporter (nM)

| biosequence | display.unit | endpoint.result |
| --- | --- | --- |
| GAAGGAGACAACAUCACUACUCCUUCAGACUAGGAUAUCAGGAAACUGAGAAGGAGUCUACUUGCAGUGAUGUUGCAAGAAUAAU [[F]''-[K]'-[F]'-[F1]-[F2]-[K1]-[K2]_Design2] | nM | 167 |
| CCGCGGCAAGCUCCGGAACCCAUAUUCGAUACCAGCCUUAUCACGGGCCCUUGGCAGCGAGCGUUAGUGAUGUUAGCGGCAUGGU [theeternabot_sameState_KL_Theo_A_27] | nM | 528 |
| CCAUUCUGUUACGAUACCAGUCAAAGAUAUUUGAUCAAUACCCUCGCCGAGUGAUGUUCGGACCCUUGGCAGCGUCUGGGACAGG [fdxxvmullin] | nM | 1320 |
| ACAUGAGUGAUGUUCAUGUGGAGCAGGGUACGAGGACCGGUACGGCCGCCACUCGAGAGUUAUGACGAGUUAAUGGCAACGAUGU [KL-Tryp-A8 #analogue] | nM | 122 |
| UAUUUAAAUAAAAUAAAAUAAAUUGCUGAUACCAGAGUCAAUUGACUCCCUUGGCAGCGGAUCGAGUGAUGUUCGUAAAAUUUAU [AK2.1 SS Theophylline A] | nM | 27.4 |
| CAACUACCCGGAAGGAGCGCGGGUGUAAAUCAAAGGGCUUGAGUGAUGUUCAAGCGGAACCCGCAGGUAGGUCGCCGGGAAGCCC [Quaneson] | nM | 113 |
| AAUGUACAGGGAAGGAGCGUCGUCCAGUGAUGUUGGAGUUAAAUACCAGUGAUGUUGGUUAGACAGGUAGGUCGCCCUAAAGUGC [Exclusion Arginine B Gf 3] | nM | 104 |
| GGGCGGCAGACGGCCGCCACUCAUAGCAGCCAGUGAGUGAUGUUCGUGGCGGAGUGAUGUUCCUAGAGGACCGGGUUUGUUGUUC [Same State Tryptophan B GF 19] | nM | 551 |
| UGUAUGGACUGAAGGAGCGCUAGGUAUGUGAGUGAUGUUCAUAUAAAUGUAUAAAGGGUUUGGCAGGUAGGUCGCAGUCCAUACU [KL-SSArg B6] | nM | 213 |
| CAGAACAUAUAUAGAAACUAUAUAUGAGAUACCAGUCAAAUUAAAGACCCUUGGCAGCUCAGGCGAGUGAUGUUCGCAGGCUAAC [Astros-Gfrank-modulation#2] | nM | 95.9 |
| UGAGUUAGACAAAAGUCUAGCUCUGGUGAAGGAGCGUCCGAAAGGACAGGUAGGUCGCACCACCUGAGUGAUGUUCAGAAUCCUU [KL-SSArg-A22] | nM | 670 |
| UACUAGUGAAACUAGUAGGUGCUAGGUGAAGGAGCGAUCGAAAGAUCAGGUAGGUCGCACCUUCCUGAGUGAUGUUCAGGUAAUA [KL-SSArg-A3] | nM | 47.2 |
| UGUAUGUGAUUUGAUACCAGACCAGGUGGAGGAAUCUGAGUGAUGUUCAGGUAGGUUCUGGUCCCUUGGCAGCAAAUCGCAUACU [KL-SSTheoB19] | nM | 166 |
| AGAACUGUCUUGGAUACCAGUGAUGUUGGUAUCGAUGUGUGAGUGCAAAGCGUCCCACAUCGCCCUUGGCAGCUAAGACAGUUCA [Omei KL Theo B Exc A v5] | nM | 331 |
| AAGCAGUCAGAGAGUGAUGUUCUCAAAUAACGAGGACCGGUACGGCCGCCACUCGAAGACUGCAAGUCCUACGAAAAGUAGGACA [Omei inspired 9] | nM | 78.7 |
| UGUGCUGUGUACUGUAAUGUUAUGCGGGAUACCAGAGUCUUUUUAUUCCCUUGGCAGCUUGAGUGAUGUUUGAUGCUGUUCUUGU [kiokmullin] | nM | 362 |
| UGUUAUGGGUGAGGAUAUGCUGACGAUGCGGGUGCGAGUGAUGUUGGUGUGGCUGGUGUCGUUUGUGCAGAAGGCACGCUCGUGG [BDazzled] | nM | 879 |
| UUAACCAACAGCGAUACCAGCGUGGAGUGAUGUUCCGAGGAUCGGAGUGAUGUUCCGAAGCGCCCUUGGCAGCGCAGAAGCGCCA [Exclusion Theophylline B GF9] | nM | 183 |
| AACUGUCAAGGACAACAUUACUGAGGUGAUACCAGCAUCGAAAGAUGCCCUUGGCAGCACUGACUUGCAGUGAUGUUGCAAGUAA [BrourdMod 8 - Jieux - Exclusion - Theophylline A] | nM | 208 |
| AGGCGACGCAAAGGAUAUCACGGUUUUCUAGUGAUGUUAGUCAAGACCGACCGAGAAAUCAGUGUUUGAGAAGGUUGAACGUCGC [theeternabot_sameState_KL_FMN_B_46] | nM | 496 |
| AAGUGAUGUUGUAGUGAUGUUGUGAUGUUGCAGGAUAUAUAGUGAUGUAGAAGGGUAAGUACUUAUUUUUUUUUUGAGUUAUGUU [crrczrmullin] | nM | 85.5 |
| UUUACCAGUGAUGUUGGCCUAGUAUUUACACGAGGACCGGUACGGCCGCCACUCGCAUUAUCGGACUUUGAUAAGCAUAUUAUAU [theeternabot_sameState_KL_Trp_A_28] | nM | 317 |
| AGCUCAGAGUGACUCGAUAAGAGUCACAAACGAGGACCGGUACGGCCGCCACUCGAAACAAAGAGAGUGAUGUUCUCGCUGAGCA [FiskerMod 10 - Jieux - Same State Tryptophan A] | nM | 319 |
